Please go through the items and note down their half-life.
experiment: Stability assessed as half life of native globular conformation state in presence of reduced glutathione at 500 uM; assay type: physicochemical; conditions: solution with 500 uM reduced glutathione
Positions of bridges follow the written chain, without caps; N, C: chain ends. Residues, ends and D or L forms follow the SMILES beside them.

Recorded half-life, per entry:
{"compound": "CC(C)C[C@@H]1NC(=O)[C@H](C)NC(=O)[C@@H]2CSSC[C@H](NC(=O)CN)C(=O)N[C@@H](CSSC[C@@H](C(=O)O)NC(=O)[C@H](CC(N)=O)NC(=O)[C@H](CC(N)=O)NC1=O)C(=O)N[C@@H](CO)C(=O)N[C@@H](CC(C)C)C(=O)N1CCC[C@H]1C(=O)N1CCC[C@H]1C(=O)N2 (H-GCCSLPPCALNNC-OH; disulfide 2-8, 3-13)", "half-life": "< 0.5 h"}
{"compound": "CC(C)C[C@@H]1NC(=O)[C@H](C)NC(=O)[C@@H]2CSSC[C@H](NC(=O)CN)C(=O)N[C@@H](CSSC[C@@H](C(=O)O)NC(=O)[C@H](CC(N)=O)NC1=O)C(=O)N[C@@H](CO)C(=O)N[C@@H](CC(C)C)C(=O)N1CCC[C@H]1C(=O)N[C@@H](CCCNC(=N)N)C(=O)N2 (H-GCCSLPRCALNC-OH; disulfide 2-8, 3-12)", "half-life": "1 h"}
{"compound": "CC(C)C[C@@H]1NC(=O)[C@H](C)NC(=O)[C@@H]2CSSC[C@H](NC(=O)CN)C(=O)N[C@@H](CSSC[C@@H](C(=O)O)NC(=O)[C@H](CC(N)=O)NC1=O)C(=O)N[C@@H](CO)C(=O)N[C@@H](CC(C)C)C(=O)N1CCC[C@H]1C(=O)N1CCC[C@H]1C(=O)N2 (H-GCCSLPPCALNC-OH; disulfide 2-8, 3-12)", "half-life": "< 0.5 h"}
{"compound": "CC(C)C[C@@H]1NC(=O)[C@H](C)NC(=O)[C@@H]2CSSC[C@H](NC(=O)CN)C(=O)N[C@@H](CSSC[C@@H](C(=O)O)NC(=O)[C@@H]3CCCN3C(=O)[C@H](CC(N)=O)NC(=O)[C@H](CC(N)=O)NC1=O)C(=O)N[C@@H](CO)C(=O)N[C@@H](CC(C)C)C(=O)N1CCC[C@H]1C(=O)N1CCC[C@H]1C(=O)N2 (H-GCCSLPPCALNNPC-OH; disulfide 2-8, 3-14)", "half-life": "< 0.5 h"}

Now examine the next entry.
Item under review: CC(C)C[C@@H]1NC(=O)[C@H](C)NC(=O)[C@@H]2CSSC[C@H](NC(=O)CN)C(=O)N[C@@H](CSSC[C@@H](C(=O)O)NC(=O)[C@H](CC(=O)O)NC(=O)[C@@H]3CCCN3C(=O)[C@H](CC(N)=O)NC(=O)[C@H](CC(N)=O)NC1=O)C(=O)N[C@@H](CO)C(=O)N[C@@H](CC(C)C)C(=O)N1CCC[C@H]1C(=O)N1CCC[C@H]1C(=O)N2 (H-GCCSLPPCALNNPDC-OH; disulfide 2-8, 3-15) . Reported half-life?
2 h
